// reported pIC50 for each item listed
Target Of Assay: CXCR2 (Homo sapiens, UniProt P25025)
Construct: expressed in transfected cells
Sequence (P25025 whole entry): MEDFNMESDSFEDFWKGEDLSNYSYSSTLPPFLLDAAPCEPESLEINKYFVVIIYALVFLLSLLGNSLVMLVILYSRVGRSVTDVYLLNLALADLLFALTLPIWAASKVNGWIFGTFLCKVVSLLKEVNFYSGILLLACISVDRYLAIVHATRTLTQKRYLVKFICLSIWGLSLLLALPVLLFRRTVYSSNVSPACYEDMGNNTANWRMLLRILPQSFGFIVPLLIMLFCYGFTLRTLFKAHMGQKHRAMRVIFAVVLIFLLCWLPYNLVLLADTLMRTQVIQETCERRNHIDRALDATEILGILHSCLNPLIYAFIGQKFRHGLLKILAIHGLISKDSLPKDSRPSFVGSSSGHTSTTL
Test Summary: NanoBRET-based G protein activation inhibition assay (REGA-SIGN Gαi1 dissociation) in HEK293A.CXCR2 cells
Assay type: cell-based
Measurement Context: CXCL7 at EC80; mean, n = 3
Experimental: Cells were trypsinized and resuspended at 3 × 10^5 cell/mL in the growth medium, whereafter they were incubated for 2 hours at RT. […] After a 10-min equilibration period, the baseline BRET signal was determined by five consecutive reads followed by automatic administration of 10 μL of 10× ligand (Table 1) to the cell plate. Changes in the BRET signal was measured for 10 min, with each read spaced by 2.5 s. […] Neg AUC of NC correctedΔBRET=Gα activation read out. b. […]
pIC50: −log10 of the molar value.

Query: Please report the recorded pIC50 for CC(CO)Nc1nc(SCc2cccc(F)c2F)nc2[nH]cnc12 (stereo not drawn) [MVH-15] .
Result: < 4.82

Query: Would you kindly repeat that for CC(CO)Nc1nc(SCc2cccc(F)c2F)nc2ncsc12 (stereo not drawn) [MVH-22] ?
Result: < 4.82

Query: Would you kindly repeat that for CCCC(C)CSc1nc(NC(C)CO)c2nn[nH]c2n1 (stereo not drawn) [MVH-82] ?
Result: < 4.82

The reported measurements were obtained from paper PMC12301332.
